Origin of the recorded values: patent US20110028719A1

Exercise: state measured Aβ Shift for each of the compounds provided.
- SYSTEM_UNDER_TEST: immobilized Aβ fibrils (Homo sapiens, UniProt P05067)
- Sequence (P05067 672-713 limits assumed): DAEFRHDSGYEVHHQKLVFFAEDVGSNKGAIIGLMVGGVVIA
- EXPERIMENT: FAC-MS assay of free Aβ monomer (indicator) binding to immobilized Aβ fibrils in the presence of test compounds
- MEASUREMENT_CONTEXT: FAC-MS screen; shift of free Aβ monomer breakthrough on immobilized Aβ fibrils in presence of compound; scale not given
Numbers only.

>  <COMPOUND>
CC1CC2(C)CC(C)C1(CO)CO2 (stereo not shown)

>  <SYSTEM_UNDER_TEST>
immobilized Aβ fibrils (Homo sapiens, UniProt P05067)

>  <Aβ Shift>
1

$$$$
>  <COMPOUND>
CC12CC3CC(C)(C1)CC(C(=O)CCC(=O)O)(C3)C2

>  <SYSTEM_UNDER_TEST>
immobilized Aβ fibrils (Homo sapiens, UniProt P05067)

>  <Aβ Shift>
1

$$$$
>  <COMPOUND>
CC(C)(C)C1CC(C(=O)O)CC(C(C)(C)C)C1 (stereo not shown)

>  <SYSTEM_UNDER_TEST>
immobilized Aβ fibrils (Homo sapiens, UniProt P05067)

>  <Aβ Shift>
1

$$$$

Report Aβ Shift for each item below.
1. CC(O)C12C3C4C5C1C2C(Br)(C43)C51OCCO1 (stereo not shown)
2. COC1CCC(C(C)=O)C(O)C1 (stereo not shown)
3. CCC12CC3CC(O)(C1)CC(C(=O)O)(C3)C2 (stereo not shown)
4. CCN(CC)CC12CC3CC(C)(CC(C)(C3)C1)C2

[0, 1, 1, 2]
